- EXPERIMENT SUMMARY: In vivo pharmacokinetic study in male ICR mice (compound alone)
- TEST PARAMETERS: male, ICR, mouse, plasma, iv, 2 mg/kg, IV 2 mg/kg, individual mice 1-3; read-out: AUCall
PROPERTY LABEL: AUC (ng·h/mL)
Field: numeric (ng·h/mL). Do not append units.

Reported AUC for Cc1cncc(C(=O)N2C[C@H]3CC[C@@H](C2)N3[C@H](c2cccc(F)c2)c2cn(CCc3ccsc3)nn2)c1 [Compound C5N17B] was 78.3

---

- EXPERIMENT SUMMARY: in vivo
- TEST PARAMETERS: male, ICR, mouse, po, 10 mg/kg, Plasma concentration, Mean, C5N17B+Ritonavir, PO 10 mg/kg, 6 h, mean of mice 1#-3#
PROPERTY LABEL: concentration at 6 h (ng/mL)
Field: numeric (ng/mL). Do not append units.

Reported concentration at 6 h for Cc1cncc(C(=O)N2C[C@H]3CC[C@@H](C2)N3[C@H](c2cccc(F)c2)c2cn(CCc3ccsc3)nn2)c1 [Compound C5N17B] was 1040

---

- EXPERIMENT SUMMARY: In vivo pharmacokinetic study in male ICR mice (compound alone)
- TEST PARAMETERS: male, ICR, mouse, plasma, iv, 2 mg/kg, IV 2 mg/kg, mean of mice 1#-3#; read-out: Tmax, Mean
PROPERTY LABEL: Tmax (min)
Field: numeric (min). Do not append units.

Reported Tmax for Cc1cncc(C(=O)N2C[C@H]3CC[C@@H](C2)N3[C@H](c2cccc(F)c2)c2cn(CCc3ccsc3)nn2)c1 [Compound C5N17B] was 5

---

- EXPERIMENT SUMMARY: In vivo pharmacokinetic study in male ICR mice (compound alone)
- TEST PARAMETERS: male, ICR, mouse, plasma, po, 10 mg/kg, p.o. 10 mg kg^−1, male ICR mice, n = 3; read-out: Tmax, p.o.
- Protocol: The pharmacokinetics profile of the newly developed antiviral compound C5N17B was subsequently evaluated in male ICR mice that were free from specific pathogens, aiming to assess its potential for therapeutic application in vivo. A total of six male ICR mice were randomly assigned to two groups. […] All samples were quantified using an LC‐MS/MS‐AR Triple Quad 5500+ (SCIEX, USA) and the ExionLC liquid phase system. […] The pharmacokinetic parameters were calculated by WinNolin 8.2 software.
PROPERTY LABEL: Tmax (min)
Field: numeric (min). Do not append units.

Reported Tmax for Cc1cncc(C(=O)N2C[C@H]3CC[C@@H](C2)N3[C@H](c2cccc(F)c2)c2cn(CCc3ccsc3)nn2)c1 [Compound C5N17B] was 4.8

---

- EXPERIMENT SUMMARY: In vivo pharmacokinetic study in male ICR mice (compound alone)
- TEST PARAMETERS: male, ICR, mouse, plasma, po, 10 mg/kg, PO 10 mg/kg, 1 h, mean of mice 4#-6#
PROPERTY LABEL: concentration at 1 h (ng/mL)
Field: numeric (ng/mL). Do not append units.

Reported concentration at 1 h for Cc1cncc(C(=O)N2C[C@H]3CC[C@@H](C2)N3[C@H](c2cccc(F)c2)c2cn(CCc3ccsc3)nn2)c1 [Compound C5N17B] was 7.2

---

- EXPERIMENT SUMMARY: in vivo
- TEST PARAMETERS: ICR, mouse, po, 10 mg/kg, Tmax, p.o. in combination with ritonavir, p.o. 10 mg kg^−1 with 20 mg kg^−1 ritonavir, ICR mice, n = 3
PROPERTY LABEL: Tmax (h)
Field: numeric (h). Do not append units.

Reported Tmax for Cc1cncc(C(=O)N2C[C@H]3CC[C@@H](C2)N3[C@H](c2cccc(F)c2)c2cn(CCc3ccsc3)nn2)c1 [Compound C5N17B] was 2.08

---

- System: SARS‐CoV‐2 (hCoV‐19/Korea/KCDC06/2020, wild type)
- EXPERIMENT SUMMARY: microbe, parasite or virus in culture
- Type: cell-based
- TEST PARAMETERS: Severe acute respiratory syndrome coronavirus 2, Calu-3, read-out: EC50 ± SD, SARS‐CoV‐2 Wild‐type
PROPERTY LABEL: EC50 (nM)
Field: numeric (nM). Do not append units.

Reported EC50 for CC(C)(C)[C@H](NC(=O)C(F)(F)F)C(=O)N1C[C@H]2[C@@H]([C@H]1C(=O)N[C@H](C#N)C[C@@H]1CCNC1=O)C2(C)C [Nirmatrelvir, reference compound] was 2780

---

- EXPERIMENT SUMMARY: In vivo pharmacokinetic study in male ICR mice (compound alone)
- TEST PARAMETERS: male, ICR, mouse, plasma, iv, 2 mg/kg, IV 2 mg/kg, 0.50 h, mean of mice 1#-3#; read-out: Plasma concentration, Mean
PROPERTY LABEL: concentration at 0.5 h (ng/mL)
Field: numeric (ng/mL). Do not append units.

Reported concentration at 0.5 h for Cc1cncc(C(=O)N2C[C@H]3CC[C@@H](C2)N3[C@H](c2cccc(F)c2)c2cn(CCc3ccsc3)nn2)c1 [Compound C5N17B] was 14.9

---

- EXPERIMENT SUMMARY: In vivo pharmacokinetic study in male ICR mice (compound alone)
- TEST PARAMETERS: male, ICR, mouse, plasma, iv, 2 mg/kg, IV 2 mg/kg, mean of mice 1#-3#; read-out: Vz, Mean
PROPERTY LABEL: Vd (L/kg)
Field: numeric (L/kg). Do not append units.

Reported Vd for Cc1cncc(C(=O)N2C[C@H]3CC[C@@H](C2)N3[C@H](c2cccc(F)c2)c2cn(CCc3ccsc3)nn2)c1 [Compound C5N17B] was 4.79

---

- EXPERIMENT SUMMARY: In vivo pharmacokinetic study in male ICR mice (compound alone)
- TEST PARAMETERS: male, ICR, mouse, plasma, po, 10 mg/kg, p.o. 10 mg kg^−1, male ICR mice, n = 3; read-out: t1/2, p.o. (converted)
PROPERTY LABEL: half-life (h)
Field: numeric (h). Do not append units.

Reported half-life for Cc1cncc(C(=O)N2C[C@H]3CC[C@@H](C2)N3[C@H](c2cccc(F)c2)c2cn(CCc3ccsc3)nn2)c1 [Compound C5N17B] was 3.55

---

- EXPERIMENT SUMMARY: in vivo
- TEST PARAMETERS: male, ICR, mouse, po, 10 mg/kg, MRTlast, C5N17B+Ritonavir, po 10 mg/kg, non-compartmental output, individual mice
PROPERTY LABEL: MRT last
Units required after the number.

Reported MRT last for Cc1cncc(C(=O)N2C[C@H]3CC[C@@H](C2)N3[C@H](c2cccc(F)c2)c2cn(CCc3ccsc3)nn2)c1 [Compound C5N17B] was 2.62 h

---

- EXPERIMENT SUMMARY: In vivo pharmacokinetic study in male ICR mice (compound alone)
- TEST PARAMETERS: male, ICR, mouse, plasma, po, 10 mg/kg, p.o. 10 mg kg^−1, male ICR mice, n = 3; read-out: MRT0‐t, p.o.
PROPERTY LABEL: MRT (h)
Field: numeric (h). Do not append units.

Reported MRT for Cc1cncc(C(=O)N2C[C@H]3CC[C@@H](C2)N3[C@H](c2cccc(F)c2)c2cn(CCc3ccsc3)nn2)c1 [Compound C5N17B] was 1.79

---

- EXPERIMENT SUMMARY: In vivo pharmacokinetic study in male ICR mice (compound alone)
- TEST PARAMETERS: male, ICR, mouse, plasma, iv, 2 mg/kg, IV 2 mg/kg, mean of mice 1#-3#; read-out: AUC0-t, Mean
PROPERTY LABEL: AUC(0-t) (ng·h/mL)
Field: numeric (ng·h/mL). Do not append units.

Reported AUC(0-t) for Cc1cncc(C(=O)N2C[C@H]3CC[C@@H](C2)N3[C@H](c2cccc(F)c2)c2cn(CCc3ccsc3)nn2)c1 [Compound C5N17B] was 63.6

---

- Test system: SARS‐CoV‐2 (hCoV‐19/Korea/KCDC06/2020, wild type)
- EXPERIMENT SUMMARY: microbe, parasite or virus in culture
- Type: cell-based
- TEST PARAMETERS: Severe acute respiratory syndrome coronavirus 2, Calu-3, Calu‐3 cells, with CP‐100356; read-out: EC50 ± SD, Calu‐3 cells, with P‐gp inhibitor
Under this convention, satisfied denotes EC50 strictly below 300 nM and not satisfied denotes EC50 at or above 300 nM.

Use the examples below as a reference point.
COC(=O)CCCn1cc(C(c2cccc(F)c2)N2[C@@H]3CC[C@H]2CN(C(=O)c2cncc(C)c2)C3)nn1 (stereo partly shown) [Compound C5N39]
satisfied
Cc1cncc(C(=O)N2C[C@H]3CC[C@@H](C2)N3C(c2cccc(F)c2)c2cn(CCc3ccccc3)nn2)c1 (stereo partly shown) [Compound C5N16]
satisfied
O=C(c1cccnc1)N1CCN(C(c2cccc(F)c2)c2cn(CCN3C(=O)c4ccccc4C3=O)nn2)CC1 (stereo not shown) [Compound C4N21]
not satisfied
Cc1cncc(C(=O)N2C[C@H]3CC[C@@H](C2)N3C(c2cccc(F)c2)c2cn(Cc3ccc([N+](=O)[O-])cc3)nn2)c1 (stereo partly shown) [Compound C5N6]
not satisfied
Cc1cncc(C(=O)N2C[C@H]3CC[C@@H](C2)N3C(c2cccc(F)c2)c2cn(CC(N)=O)nn2)c1 (stereo partly shown) [Compound C5N58]
not satisfied
O=C(c1cccnc1)N1CCN(C(c2cccc(F)c2)c2cn(CCc3ccsc3)nn2)CC1 (stereo not shown) [Compound C4N17]
not satisfied
CNC(=O)Cn1cc(C(c2cccc(F)c2)N2[C@@H]3CC[C@H]2CN(C(=O)c2cncc(C)c2)C3)nn1 (stereo partly shown) [Compound C5N57]
not satisfied
O=C(NCc1cccs1)C1CN(C(=O)c2cccnc2)CCN1c1ccc(Cl)c(Cl)c1 (stereo not shown) [GC‐14, reference compound]
not satisfied
Cc1cncc(C(=O)N2C[C@H]3CC[C@@H](C2)N3C(c2cccc(F)c2)c2cn(CS(=O)(=O)c3ccccc3)nn2)c1 (stereo partly shown) [Compound C5N42]
satisfied

# next molecule below
Ask: Given the entry Cc1cncc(C(=O)N2C[C@H]3CC[C@@H](C2)N3C(c2cccc(F)c2)c2cn(Cc3cccc([N+](=O)[O-])c3)nn2)c1 (stereo partly shown) [Compound C5N5] , would its reported EC50 be below 300 nM?
Reply: not satisfied
